test system: CLZ3 (HCA2 human fibroblast dual HR-NHEJ reporter); test: NHEJ repair efficiency (GFP+ cells) relative to control (log10 fold); higher = more non-homologous end joining; conditions: 5 µM; doxycycline 0.5 ug/mL
quantity.measured: NHEJ repair efficiency (log10)

molecule="COC(=O)C1=CO[C@@H](O[C@@H]2O[C@H](CO)[C@@H](O)[C@H](O)[C@H]2O)[C@@H]2C(CO)=CC[C@H]12 [Geniposide]" recorded_measurement=-0.0355
molecule="C[C@]1(O)C[C@@H](O)[C@]2(O)C=CO[C@@H](O[C@H]3O[C@H](CO)[C@@H](O)[C@H](O)[C@H]3O)[C@@H]21 [Harpagide]" recorded_measurement=0.0851
molecule=CC[C@@H]1[C@H]2CCCCN3[C@H]2[C@H](C[C@H]3[C@@H]2C[C@H](C)C(=O)O2)[C@@H]2[C@H]1OC(=O)[C@H]2C recorded_measurement=0.233
molecule=CC[C@H](C)[C@@H]1NC(=O)[C@@H]2CCCN2C(=O)[C@@H]2CCCN2C(=O)[C@@H]2CCCN2C(=O)[C@H](CC(C)C)NC(=O)CNC(=O)CNC(=O)[C@H](Cc2ccccc2)NC1=O recorded_measurement=0.0424
molecule=O=c1c(-c2ccc(O)cc2)coc2cc(O)ccc12 recorded_measurement=-0.0789
molecule=C[C@@H]1O[C@@H](O[C@H]2[C@H](OC(=O)[C@]34CCC(C)(C)C[C@H]3C3=CC[C@@H]5[C@@]6(C)C[C@H](O)[C@H](O[C@@H]7O[C@H](CO)[C@@H](O)[C@H](O)[C@H]7O)C(CO)(CO)[C@@H]6CC[C@@]5(C)[C@]3(C)C[C@H]4O)OC[C@H](O)[C@@H]2O)[C@H](O)[C@H](O)[C@H]1O[C@@H]1OC[C@@H](O)[C@H](O[C@@H]2OC[C@](O)(CO)[C@H]2O)[C@H]1O recorded_measurement=-0.142
molecule="C/C=C\\c1ccc(OC)cc1 [cis-Anethol]" recorded_measurement=0.133
molecule=CC(C)=CCc1c(-c2ccc(O)cc2O)oc2c([C@H]3C=C(C)C[C@@H](c4ccc(O)cc4O)[C@@H]3C(=O)c3ccc(O)cc3O)c(O)cc(O)c2c1=O recorded_measurement=0.0109
molecule=C=CC1=C(C)/C(=C/c2[nH]c(Cc3[nH]c(/C=C4\NC(=O)C(C)=C4C=C)c(C)c3CCC(=O)O)c(CCC(=O)O)c2C)NC1=O recorded_measurement=-0.0874
molecule=C=C1C[C@@]2(O)O[C@@]3(C[C@H]2C(C)C)[C@@H](C)CC[C@@H]13 recorded_measurement=-0.0784
molecule=C=CCc1ccc(O)c(OC)c1 recorded_measurement=0.027
molecule="COc1cc(O)c2c(=O)c(O[C@@H]3O[C@H](CO)[C@@H](O)[C@H](O)[C@H]3O)c(-c3ccc(O[C@@H]4O[C@H](CO)[C@@H](O)[C@H](O)[C@H]4O)cc3)oc2c1 [Complanatoside]" recorded_measurement=-0.0413

* * *

tested on: CLZ3 (HCA2 human fibroblast dual HR-NHEJ reporter); experiment: HR repair efficiency (tdTomato+ cells) relative to control (log10 fold); higher = more homologous recombination; conditions: 5 µM; doxycycline 0.5 ug/mL
Where a name gives a salt, the structure may show the parent alone.
quantity.measured: HR repair efficiency (log10)

molecule=C[C@@H]1O[C@@H](O[C@H]2[C@H](OC(=O)[C@]34CCC(C)(C)C[C@H]3C3=CC[C@@H]5[C@@]6(C)C[C@H](O)[C@H](O[C@@H]7O[C@H](CO)[C@@H](O)[C@H](O)[C@H]7O)C(CO)(CO)[C@@H]6CC[C@@]5(C)[C@]3(C)C[C@H]4O)OC[C@H](O)[C@@H]2O)[C@H](O)[C@H](O)[C@H]1O[C@@H]1OC[C@@H](O)[C@H](O[C@@H]2OC[C@](O)(CO)[C@H]2O)[C@H]1O recorded_measurement=-0.287
molecule="CC(C)=CC/C=C(\\C)[C@H]1CC[C@]2(C)[C@@H]1[C@H](O)C[C@@H]1[C@@]3(C)CC[C@H](O[C@@H]4O[C@H](CO)[C@@H](O)[C@H](O)[C@H]4O[C@@H]4O[C@H](CO)[C@@H](O)[C@H](O)[C@H]4O)C(C)(C)[C@@H]3CC[C@]12C [Ginsenoside Rg5]" recorded_measurement=0.0507
molecule="c1ccc([C@H]2CN3CCSC3=N2)cc1 [Levamisole hydrochloride]" recorded_measurement=-0.0158
molecule=Cn1c(=O)c2c(ncn2C)n(C)c1=O recorded_measurement=0.0527
molecule=O=C(O)CCC(=O)O recorded_measurement=0.102

* * *

test system: CLZ3 (HCA2 human fibroblast dual HR-NHEJ reporter); experiment: HR repair efficiency (tdTomato+ cells) relative to control (log10 fold); higher = more homologous recombination; details: 5 µM; doxycycline 0.5 ug/mL
just bin them by HR repair efficiency (log10): band A = under -0.07, band B = from -0.07 up to 0.1, band C = 0.1 and over

compound=COc1ccc(-c2cc(=O)c3c(OC)c(OC)c(OC)c(OC)c3o2)cc1 assigned_category="band B"
compound=O=C(/C=C/c1ccc(O)c(O)c1)O[C@@H]1C[C@@](OC(=O)/C=C/c2ccc(O)c(O)c2)(C(=O)O)C[C@@H](O)[C@@H]1O assigned_category="band B"
compound="CC(C)=CCC[C@](C)(O[C@@H]1O[C@H](CO[C@@H]2OC[C@H](O)[C@H](O)[C@H]2O)[C@@H](O)[C@H](O)[C@H]1O)[C@H]1CC[C@]2(C)[C@@H]1[C@H](O)C[C@@H]1[C@@]3(C)CC[C@H](O[C@@H]4O[C@H](CO)[C@@H](O)[C@H](O)[C@H]4O[C@@H]4O[C@H](CO)[C@@H](O)[C@H](O)[C@H]4O)C(C)(C)[C@@H]3CC[C@]12C [Ginsenoside Rb2]" assigned_category="band B"
compound=C=C(C)[C@@H]1CC[C@]2(C)[C@H](CC=C3[C@@H]4[C@@H](C)[C@H](C)CC[C@]4(C)CC[C@]32C)[C@@]1(C)CCC(=O)O assigned_category="band C"
compound=COC(=O)c1ccccc1O[C@@H]1O[C@H](CO[C@@H]2OC[C@@H](O)[C@H](O)[C@H]2O)[C@@H](O)[C@H](O)[C@H]1O assigned_category="band A"
compound=COc1ccc(-c2cc(=O)c3c(O)cc(O)c(-c4cc(-c5cc(=O)c6c(O)cc(OC)cc6o5)ccc4OC)c3o2)cc1 assigned_category="band C"
compound="C=C1CC[C@@H]2[C@](C)(CO)[C@H](O)CC[C@@]2(C)[C@@H]1C/C=C1/C(=O)OC[C@H]1O [Andrographolide]" assigned_category="band C"
compound=CCOC(=O)c1cc(O)c(O)c(O)c1 assigned_category="band B"
compound=COc1cc2oc(=O)ccc2c(OC)c1O assigned_category="band B"
compound="CC(C)=CCC12Oc3cc(O)ccc3C1(O)Oc1cc(O)c([C@H]3C=C(C)C[C@@H](c4ccc(O)cc4O)[C@@H]3C(=O)c3ccc(O)cc3O)c(O)c1C2=O (stereo partly specified)" assigned_category="band A"

* * *

Attribute: NHEJ repair efficiency (log10)
test system: CLZ3 (HCA2 human fibroblast dual HR-NHEJ reporter); experiment: NHEJ repair efficiency (GFP+ cells) relative to control (log10 fold); higher = more non-homologous end joining; details: 5 µM; doxycycline 0.5 ug/mL
quantity.measured: NHEJ repair efficiency (log10)

compound="C[C@@H]1O[C@@H](O[C@H]2[C@H](O[C@H]3CC[C@@]4(C)[C@@H](CC[C@]5(C)[C@@H]4CC=C4[C@@H]6CC(C)(C)CC[C@]6(C(=O)O[C@@H]6O[C@H](CO[C@@H]7O[C@H](CO)[C@@H](O)[C@H](O)[C@H]7O)[C@@H](O)[C@H](O)[C@H]6O)CC[C@]45C)[C@]3(C)CO)OC[C@H](O)[C@@H]2O)[C@H](O)[C@H](O[C@@H]2O[C@H](CO)[C@@H](O)[C@H](O)[C@H]2O)[C@H]1O [Macranthoidin A]" system="CLZ3 (HCA2 human fibroblast dual HR-NHEJ reporter)" recorded_measurement=-0.155
compound="COc1cc(/C=C/C(=O)O)ccc1O [Sodium Ferulate]" system="CLZ3 (HCA2 human fibroblast dual HR-NHEJ reporter)" recorded_measurement=-0.0171
compound="OC[C@H]1O[C@@H](Oc2cc(O)cc(/C=C/c3ccc(O)cc3)c2)[C@H](O)[C@@H](O)[C@@H]1O [Polydatin]" system="CLZ3 (HCA2 human fibroblast dual HR-NHEJ reporter)" recorded_measurement=0.036
compound="Cn1c(=O)c2c(ncn2C)n(C)c1=O [Caffeine]" system="CLZ3 (HCA2 human fibroblast dual HR-NHEJ reporter)" recorded_measurement=0.103
compound="COc1ccc(C2OCC3C(c4cc(OC)c(OC)c(OC)c4)OCC23)cc1OC (configuration not stated) [Magnolin]" system="CLZ3 (HCA2 human fibroblast dual HR-NHEJ reporter)" recorded_measurement=-0.0599
compound="C[C@]12C[C@@H](O)[C@@H]3C[C@@]1(O[C@@H]1O[C@H](CO)[C@@H](O)[C@H](O)[C@H]1O)[C@@]3(COC(=O)c1ccccc1)C(=O)O2 [Albiflorin]" system="CLZ3 (HCA2 human fibroblast dual HR-NHEJ reporter)" recorded_measurement=0.0446
compound="COc1cc(C2Oc3ccc(C4Oc5cc(O)cc(O)c5C(=O)C4O)cc3OC2CO)ccc1O (configuration not stated) [Iso-Silybin]" system="CLZ3 (HCA2 human fibroblast dual HR-NHEJ reporter)" recorded_measurement=-0.138
